target: Torsin-1A-interacting protein 2 (Homo sapiens); test: LULL1 binders on small-molecule microarray, primary screen, cell lysate, human LULL1 lysate, 635/667 nm fluorescence (AID 1092); details: hLULL1 lysate binding, 635 nm fluorescence, higher = more signal;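 note: probe is lysate of COS7 cells overexpressing human LULL1; score merges per-feature 667 nm fluorescence with signal-to-noise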
observedProperty: composite z-score

[
  {
    "compound": "COc1ccc(COC(=O)NN=C2C[C@@H](O)[C@@H](O)[C@@H]3[C@@H]4C(=O)N(Cc5ccc6c(c5)OCO6)C(=O)[C@@H]4CC[C@H]23)cc1",
    "measured": 0.259
  },
  {
    "compound": "CC(CCC(=O)OC[C@H]1O[C@H](C#Cc2ccccc2)C=C[C@@H]1Oc1ccc(C)cc1)=NOC(C)CN1CCCCc2nc(C)c(C)cc21 (some centres undefined)",
    "measured": 0.238
  },
  {
    "compound": "COc1ccc(O[C@H]2C=C[C@@H](c3ccccc3)O[C@@H]2CON=C(C)CCN2CCCc3nc(C)c(C)cc32)cc1",
    "measured": 1.56
  },
  {
    "compound": "CCOC(=O)CCN1C(=O)[C@H]2[C@H]3[C@H](O)[C@H](O)CC(=NNC(=O)OCc4ccccc4)[C@H]3CC[C@H]2C1=O",
    "measured": -1.53
  }
]

----------
test: basal RPMI8226 viability, no added stimulus, profiling panel, cell-based, calcein-AM fluorescence, 48 h, PK04 Diversity Set (AID 1166); conditions: RPMI8226 myeloma viability, higher = more signal;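 note: cells grown under basal conditions without added stimulus; test concentration not given here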
observedProperty: z-score

[
  {
    "compound": "CC(C)CON=C1C[C@@H](O)[C@@H](O)[C@@H]2[C@@H]3C(=O)N(Cc4ccccc4)C(=O)[C@@H]3CC[C@H]12",
    "observedProperty": "z-score",
    "measured": -0.48
  },
  {
    "compound": "CO[C@H]1C[C@@H]2C[C@H](O)CC(CC(=O)O[C@@H](C=CCC(C)C)C[C@@H]3CC[C@H](C)[C@@H](C1)O3)O2",
    "observedProperty": "z-score",
    "measured": 0.624
  },
  {
    "compound": "C=CC[C@@H]1C=C[C@H](ON=C(C)CCN2CCCCc3nc(C)c(C)cc32)[C@@H](CO)O1",
    "observedProperty": "z-score",
    "measured": -0.332
  },
  {
    "compound": "CC(C)CON=C1C[C@@H](O)[C@@H](O)[C@@H]2[C@@H]3C(=O)N(Cc4ccc5c(c4)OCO5)C(=O)[C@@H]3CC[C@@H]12",
    "observedProperty": "z-score",
    "measured": -0.51
  },
  {
    "compound": "CC(C)CON=C1C[C@@H](O)[C@@H](O)[C@@H]2[C@@H]3C(=O)N([C@@H](C)c4ccccc4)C(=O)[C@@H]3CC[C@@H]12",
    "observedProperty": "z-score",
    "measured": 0.336
  },
  {
    "compound": "CCOC(=O)[C@H](CC(C)C)NC(=O)CCC1CC(OC(=O)NCCc2ccc(F)cc2)CC2(CCCC(COC(=O)NCc3cccc(C(F)(F)F)c3)O2)O1 (stereo partly specified)",
    "observedProperty": "z-score",
    "measured": 0.277
  },
  {
    "compound": "COC(=O)CC=C[C@@H](C)[C@@H](C=NOC[C@@H](C)[C@H](OCc1ccccc1)C(C)C)OC",
    "observedProperty": "z-score",
    "measured": -0.991
  },
  {
    "compound": "O=C(NCCC[N+]1=CC=NC1c1ccccc1)N1CCCc2nc(-c3ccc(Br)cc3)ccc21 (stereo unspecified)",
    "observedProperty": "z-score",
    "measured": -0.77
  },
  {
    "compound": "CC(CCN1CCCc2nc(C)c(C)cc21)=NO[C@@H](C)c1cn([C@H](CO)Cc2ccccc2)nn1",
    "observedProperty": "z-score",
    "measured": 0.049
  },
  {
    "compound": "COc1ccc(-c2cnnc(CCCn3ccnc3-c3ccccc3)n2)cc1",
    "observedProperty": "z-score",
    "measured": -2.55
  },
  {
    "compound": "O=C1CCCC=C1C(O)c1ccc([N+](=O)[O-])cc1 (stereo unspecified)",
    "observedProperty": "z-score",
    "measured": 0.372
  },
  {
    "compound": "CC(C)(C)N1C(=O)[C@H]2[C@H]3[C@H](O)[C@H](O)CC(=NNC(=O)OCc4ccccc4)[C@@H]3CC[C@H]2C1=O",
    "observedProperty": "z-score",
    "measured": 0.489
  },
  {
    "compound": "O=C1[C@H]2[C@H]3[C@H](O)[C@H](O)CC(=NOC[C@@H](O)COCc4ccco4)[C@@H]3CC[C@H]2C(=O)N1C1CCCCC1",
    "observedProperty": "z-score",
    "measured": -0.002
  },
  {
    "compound": "CO[C@@H]1COC(=O)[C@@H]2CCCN2C(=O)[C@@H](C)COC(=O)CCC[C@H]1C",
    "observedProperty": "z-score",
    "measured": 0.498
  },
  {
    "compound": "CO[C@H]1COC(=O)[C@H](CCSC)NC(=O)CC=C[C@@H](C)[C@H](OC)COC(=O)[C@@H](OCc2ccccc2)C=C[C@@H]1C",
    "observedProperty": "z-score",
    "measured": 0.241
  },
  {
    "compound": "CCCNC(=O)OC[C@H]1O[C@H](CCON=C[C@@H](NS(=O)(=O)c2ccc(C)cc2)[C@H](C)C=CCC(=O)OC)C=C[C@@H]1Oc1ccc(OC)cc1",
    "observedProperty": "z-score",
    "measured": -0.773
  }
]

----------
Catalogue of composite z-score readings, one per entry.
target: Dihydroorotate dehydrogenase (quinone), mitochondrial (Plasmodium falciparum (isolate 3D7)) (UniProt Q08210); experiment: PfDHODH enzyme inhibitors, primary screen, biochemical, C-terminal His tag, absorbance 600 nm (AID 1175); conditions: DCIP absorbance 600 nm, higher = more signal, called active from +8 up or from −8 down;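 note: recombinant parasite enzyme with a five histidine tag at its C terminus; test concentration not given here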
Sequence (Q08210 whole entry, looked up): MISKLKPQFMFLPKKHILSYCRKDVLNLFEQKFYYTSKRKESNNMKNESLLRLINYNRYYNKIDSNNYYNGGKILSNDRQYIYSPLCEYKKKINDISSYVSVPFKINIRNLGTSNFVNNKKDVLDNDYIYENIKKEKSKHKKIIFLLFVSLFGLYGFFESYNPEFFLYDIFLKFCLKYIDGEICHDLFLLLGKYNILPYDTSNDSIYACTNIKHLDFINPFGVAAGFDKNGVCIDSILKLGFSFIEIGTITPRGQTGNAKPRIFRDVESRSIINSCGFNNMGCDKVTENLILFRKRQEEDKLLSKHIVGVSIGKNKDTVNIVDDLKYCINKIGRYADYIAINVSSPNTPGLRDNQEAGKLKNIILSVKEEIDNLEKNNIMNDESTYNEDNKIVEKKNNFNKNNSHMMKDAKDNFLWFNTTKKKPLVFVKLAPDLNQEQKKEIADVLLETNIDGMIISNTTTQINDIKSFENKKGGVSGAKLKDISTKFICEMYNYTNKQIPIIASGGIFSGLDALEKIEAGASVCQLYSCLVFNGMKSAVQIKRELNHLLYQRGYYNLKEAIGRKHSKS

[
  {
    "compound": "CC(C)=CCCC(C)=CCON=C1C[C@@H](O)[C@@H](O)[C@@H]2[C@@H]3C(=O)N([C@@H](C)c4ccccc4)C(=O)[C@@H]3CC[C@@H]12",
    "composite z-score": -0.0515
  },
  {
    "compound": "COC(=O)CC=C1c2ccccc2[C@H](OC)[C@H]1C",
    "composite z-score": 0.582
  },
  {
    "compound": "COC(=O)[C@H](C)NC(=O)CCC1CC(OC(=O)NCc2cccc3ccccc23)CC2(CCCC(COC(=O)NCc3ccccc3)O2)O1 (some centres not stated)",
    "composite z-score": 0.0095
  },
  {
    "compound": "O=C1C[C@@H](O)[C@@H](O)[C@@H]2[C@@H]3C(=O)N(c4ccc(F)cc4F)C(=O)[C@@H]3CC[C@H]12",
    "composite z-score": -0.0528
  },
  {
    "compound": "CCN1C(=O)[C@H]2[C@H]3[C@H](O)[C@H](O)CC(=NOCC=C(C)CCC=C(C)C)[C@@H]3CC[C@H]2C1=O",
    "composite z-score": -1.16
  },
  {
    "compound": "CON(C)C(=O)c1nnc2c(n1)[nH]c1ccccc12",
    "composite z-score": -0.306
  },
  {
    "compound": "CC(=O)OC[C@H]1O[C@H](CCON=C(C)CCN2CCCc3nc(C)c(C)cc32)C=C[C@@H]1OC(C)=O",
    "composite z-score": 0.245
  },
  {
    "compound": "CO[C@@H]1[C@H](O)CO[C@H]1C=Cc1ccccc1",
    "composite z-score": 0.295
  },
  {
    "compound": "CC(C)=CCCC(C)=CCON=C1C[C@@H](O)[C@@H](O)[C@@H]2[C@@H]3C(=O)N(C4CCCCC4)C(=O)[C@@H]3CC[C@H]12",
    "composite z-score": 0.235
  },
  {
    "compound": "CC(=O)OC[C@H]1O[C@H](CC=NOC[C@@H](O)COCc2ccco2)C=C[C@@H]1OC(C)=O",
    "composite z-score": -0.554
  },
  {
    "compound": "COc1ccc(O[C@H]2C=C[C@@H](c3ccccc3)O[C@@H]2CON=C2c3cc(OC)ccc3O[C@H](c3cccc(OC)c3)[C@H]2O)cc1",
    "composite z-score": 0.586
  },
  {
    "compound": "CCOC(=O)[C@H](Cc1ccccc1)NC(=O)CCC1CC(OC(=O)NCc2ccc3c(c2)OCO3)CC2(CCCC(COC(=O)NCCOC)O2)O1 (some centres not stated)",
    "composite z-score": -2.56
  }
]

Reference for the values: PubChem BioAssay
